- System: A549
- measurement description: Cytotoxicity against human A549 cells assessed as reduction in cell viability after 48 hrs by MTT assay
- Assay type: functional, cell-based
- condition notes: A549, 48 h
quantity name: IC50 (µM)
Lab book: enter the figure in µM, no units written.

Guide cases for IC50, answers given:
1) CC1(C)CC[C@]2(C(=O)N3CCN(CCC(=O)O)CC3)CC[C@]3(C)C(=CC[C@@H]4[C@@]5(C)CC[C@H](O)[C@@](C)(CO)[C@@H]5CC[C@]43C)[C@@H]2C1 : 31.5
2) CC1(C)CC[C@]2(C(=O)O)CC[C@]3(C)C(=CC[C@@H]4[C@@]5(C)CC[C@H](O)[C@@](C)(CO)[C@@H]5CC[C@]43C)[C@@H]2C1 [HEDERAGENIN] : 10.2

I have this compound here, C[C@H]1O[C@@H](O[C@H]2[C@H](O[C@H]3CC[C@@]4(C)[C@@H](CC[C@]5(C)[C@@H]4CC(=O)[C@@H]4[C@@H]6CC(C)(C)CC[C@]6(C(=O)NCC(=O)O)CC[C@]45C)[C@]3(C)CO)OC[C@H](O)[C@@H]2O)[C@H](O)[C@H](O)[C@H]1O , and I need its recorded IC50.
95.8

I have this compound here, COC(=O)CCN1CCN(C(=O)[C@]23CCC(C)(C)C[C@H]2C2=CC[C@@H]4[C@@]5(C)CC[C@H](OC(C)=O)[C@@](C)(COC(C)=O)[C@@H]5CC[C@@]4(C)[C@]2(C)CC3)CC1 , and I need its recorded IC50.
4.69

###

- Tested on: A549
- measurement description: Cytotoxicity against human A549 cells assessed as reduction in cell viability after 48 hrs by MTT assay
- Type: functional, cell-based
- condition notes: A549, 48 h
pIC50: −log10 of the molar value.
Measured pIC50 of individual entries

1. C[C@H]1O[C@@H](O[C@H]2[C@H](O[C@H]3CC[C@@]4(C)[C@@H](CC[C@]5(C)[C@@H]4CC=C4[C@@H]6CC(C)(C)CC[C@]6(C(=O)NCC(=O)NCC(=O)O)CC[C@]45C)[C@]3(C)CO)OC[C@H](O)[C@@H]2O)[C@H](O)[C@H](O)[C@H]1O : < 4.00
2. C[C@H]1O[C@@H](O[C@H]2[C@H](O[C@H]3CC[C@@]4(C)[C@@H](CC[C@]5(C)[C@@H]4CC=C4[C@@H]6CC(C)(C)CC[C@]6(C(=O)NCCCCC(=O)O)CC[C@]45C)[C@]3(C)CO)OC[C@H](O)[C@@H]2O)[C@H](O)[C@H](O)[C@H]1O : < 4.00
3. C[C@H]1O[C@@H](O[C@H]2[C@H](O[C@H]3CC[C@@]4(C)[C@@H](CC[C@]5(C)[C@@H]4C(=O)C=C4[C@@H]6CC(C)(C)CC[C@]6(C(=O)O)CC[C@]45C)[C@]3(C)CO)OC[C@H](O)[C@@H]2O)[C@H](O)[C@H](O)[C@H]1O : < 4.00
4. C[C@H]1O[C@@H](O[C@H]2[C@H](O[C@H]3CC[C@@]4(C)[C@@H](CC[C@]5(C)[C@@H]4CC(O)[C@]46OC(=O)[C@@]7(CCC(C)(C)C[C@H]74)CC[C@@]56C)[C@]3(C)CO)OC[C@H](O)[C@@H]2O)[C@H](O)[C@H](O)[C@H]1O (some centres not stated) : < 4.00
5. C[C@H]1O[C@@H](O[C@H]2[C@H](O[C@H]3CC[C@@]4(C)[C@@H](CC[C@]5(C)[C@@H]4CC=C4[C@@H]6CC(C)(C)CC[C@]6(C(=O)OCCCCCCO[N+](=O)[O-])CC[C@]45C)[C@]3(C)CO)OC[C@H](O)[C@@H]2O)[C@H](O)[C@H](O)[C@H]1O : 4.19

I have this molecule here, C[C@H]1O[C@@H](O[C@H]2[C@H](O[C@H]3CC[C@@]4(C)[C@@H](CC[C@]5(C)[C@@H]4CC(=O)[C@]46OC(=O)[C@@]7(CCC(C)(C)C[C@H]74)CC[C@@]56C)[C@]3(C)CO)OC[C@H](O)[C@@H]2O)[C@H](O)[C@H](O)[C@H]1O , and I need its recorded pIC50.
< 4.00

I have this molecule here, C[C@H]1O[C@@H](O[C@H]2[C@H](O[C@H]3CC[C@@]4(C)[C@@H](CC[C@]5(C)[C@@H]4CC(=O)[C@@H]4[C@@H]6CC(C)(C)CC[C@]6(C(=O)O)CC[C@]45C)[C@]3(C)CO)OC[C@H](O)[C@@H]2O)[C@H](O)[C@H](O)[C@H]1O , and I need its recorded pIC50.
4.04
